The origin of these recorded values is patent US11285218B2.

# tested_on: BRD9:CRBN-DDB1 protein complex (Homo sapiens, UniProt Q96SW2+Q9H8M2)
# method_description: BRD9:CRBN-DDB1 dimerization assay (luminescence)
# particulars: luminescence detection of dimerization assay
Label 1.0 when BRD9:CRB9-DDB1 Cmax is at or above 30 nM; otherwise label 0.0.

1) COc1cc(-c2cn(C)c(=O)c3cc(C(=N)NC4CCS(=O)(=O)CC4)sc23)ccc1OCC(=O)N1CCC(C2CCN(C(=O)COc3cccc4c3C(=O)N(C3CCC(=O)NC3=O)C4=O)CC2)CC1 (centres unmarked)
1.0
2) COc1cc(-c2cn(C)c(=O)c3cc(C(=N)NC4CCS(=O)(=O)CC4)sc23)ccc1OCC(=O)NCCCCCCCCNc1ccc2c(c1)C(=O)N(C1CCC(=O)NC1=O)C2=O (centres unmarked)
1.0
3) COc1cc(-c2cn(C)c(=O)c3cc(C(=N)NC4CCS(=O)(=O)CC4)sc23)ccc1OCC(=O)NCCCCCCCCNc1cccc2c1CN(C1CCC(=O)NC1=O)C2=O (centres unmarked)
0.0
4) COc1cc(-c2cn(C)c(=O)c3cc(C(=N)NC4CCS(=O)(=O)CC4)sc23)ccc1OCC(=O)NCCCCCCOc1cccc2c1C(=O)N(C1CCC(=O)NC1=O)C2=O (centres unmarked)
1.0
5) COc1cc(-c2cn(C)c(=O)c3cnccc23)cc(OC)c1CN(C)CC(=O)NCCCCCCCCNC(=O)COc1cccc2c1C(=O)N(C1CCC(=O)NC1=O)C2=O (centres unmarked)
0.0

---

# tested_on: BRD9:CRBN-DDB1 protein complex (Homo sapiens, UniProt Q96SW2+Q9H8M2)
# method_description: BRD9:CRBN-DDB1 dimerization assay (luminescence)
# particulars: luminescence detection of dimerization assay
property_measured: BRD9:CRB9-DDB1 Cmax (nM)

1) COc1cc(-c2cn(C)c(=O)c3cc(C(=N)NC4CCS(=O)(=O)CC4)sc23)ccc1OCC(=O)NCCCCNC(=O)COc1cccc2c1C(=O)N(C1CCC(=O)NC1=O)C2=O (stereo not drawn) [Compound I-1]
42.5
2) COc1cc(-c2cn(C)c(=O)c3cc(C(=N)NC4CCS(=O)(=O)CC4)sc23)ccc1OCC(=O)NCCCOCCOCCOCCCNC(=O)COc1cccc2c1C(=O)N(C1CCC(=O)NC1=O)C2=O (stereo not drawn) [Compound I-3]
44.9
3) COc1cc(-c2cn(C)c(=O)c3cnccc23)cc(OC)c1CN(C)CC(=O)NCCCCCCCCNc1cccc2c1C(=O)N(C1CCC(=O)NC1=O)C2=O (stereo not drawn) [Compound I-15]
8.22

---

Documented pIC50 across a set of compounds
# tested_on: BRD9 (Homo sapiens, UniProt Q9H8M2)
# Sequence (Q9H8M2 134-245 limits assumed): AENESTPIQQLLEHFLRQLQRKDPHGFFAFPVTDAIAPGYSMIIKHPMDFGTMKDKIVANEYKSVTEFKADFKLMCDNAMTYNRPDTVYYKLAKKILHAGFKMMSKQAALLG
pIC50: −log10 of the molar value.
property_measured: pIC50

1) COc1cc(-c2cn(C)c(=O)c3cc(C(=N)NC4CCS(=O)(=O)CC4)sc23)ccc1OCC(=O)NCCCCCCOc1cccc2c1C(=O)N(C1CCC(=O)NC1=O)C2=O (stereo not drawn) [Compound I-8]
7.52
2) COc1cc(-c2cn(C)c(=O)c3cc(C(=N)NC4CCS(=O)(=O)CC4)sc23)ccc1OCC(=O)N1CCC(C2CCN(C(=O)COc3cccc4c3C(=O)N(C3CCC(=O)NC3=O)C4=O)CC2)CC1 (stereo not drawn) [Compound I-7]
7.90
3) COc1cc(-c2cn(C)c(=O)c3cc(C(=N)NC4CCS(=O)(=O)CC4)sc23)ccc1OCC(=O)NCCCOCCOCCOCCCNC(=O)COc1cccc2c1C(=O)N(C1CCC(=O)NC1=O)C2=O (stereo not drawn) [Compound I-3]
7.44

---

Documented BRD9:CRB9-DDB1 AUC across a set of molecules
# tested_on: BRD9:CRBN-DDB1 protein complex (Homo sapiens, UniProt Q96SW2+Q9H8M2)
# method_description: BRD9:CRBN-DDB1 dimerization assay (luminescence)
# particulars: luminescence detection of dimerization assay
property_measured: BRD9:CRB9-DDB1 AUC

1. COc1cc(-c2cn(C)c(=O)c3cc(C(=N)NC4CCS(=O)(=O)CC4)sc23)ccc1OCC(=O)NCCCCCCOc1cccc2c1C(=O)N(C1CCC(=O)NC1=O)C2=O (stereo not drawn) [Compound I-8]
144813
2. COc1cc(-c2cn(C)c(=O)c3cc(C(=N)NC4CCS(=O)(=O)CC4)sc23)ccc1OCC(=O)NCCCCNC(=O)COc1cccc2c1C(=O)N(C1CCC(=O)NC1=O)C2=O (stereo not drawn) [Compound I-1]
44270
3. COc1cc(-c2cn(C)c(=O)c3cc(C(=N)NC4CCS(=O)(=O)CC4)sc23)ccc1OCC(=O)NCCCCCCCCNc1cccc2c1C(=O)N(C1CCC(=O)NC1=O)C2=O (stereo not drawn) [Compound I-5]
67227

---

# tested_on: CRBN-DDB1 (Homo sapiens, UniProt Q96SW2)
# Construct: made in house; host or cells: Sf9 cells (Invitrogen)
# Sequence (Q96SW2 whole entry): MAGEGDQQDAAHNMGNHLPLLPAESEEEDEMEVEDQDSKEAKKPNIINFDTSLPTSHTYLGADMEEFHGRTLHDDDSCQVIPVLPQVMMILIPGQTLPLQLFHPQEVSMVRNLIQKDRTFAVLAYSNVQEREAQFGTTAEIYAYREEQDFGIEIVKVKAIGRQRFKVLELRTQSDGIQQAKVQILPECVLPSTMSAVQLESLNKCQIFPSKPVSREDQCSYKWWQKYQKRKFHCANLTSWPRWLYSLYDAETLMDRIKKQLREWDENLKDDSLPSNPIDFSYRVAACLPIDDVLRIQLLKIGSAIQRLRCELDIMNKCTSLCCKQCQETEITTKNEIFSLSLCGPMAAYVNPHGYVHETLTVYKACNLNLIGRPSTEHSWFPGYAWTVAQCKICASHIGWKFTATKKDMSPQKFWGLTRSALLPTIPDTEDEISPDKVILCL
# Sequence (Q16531 whole entry partner): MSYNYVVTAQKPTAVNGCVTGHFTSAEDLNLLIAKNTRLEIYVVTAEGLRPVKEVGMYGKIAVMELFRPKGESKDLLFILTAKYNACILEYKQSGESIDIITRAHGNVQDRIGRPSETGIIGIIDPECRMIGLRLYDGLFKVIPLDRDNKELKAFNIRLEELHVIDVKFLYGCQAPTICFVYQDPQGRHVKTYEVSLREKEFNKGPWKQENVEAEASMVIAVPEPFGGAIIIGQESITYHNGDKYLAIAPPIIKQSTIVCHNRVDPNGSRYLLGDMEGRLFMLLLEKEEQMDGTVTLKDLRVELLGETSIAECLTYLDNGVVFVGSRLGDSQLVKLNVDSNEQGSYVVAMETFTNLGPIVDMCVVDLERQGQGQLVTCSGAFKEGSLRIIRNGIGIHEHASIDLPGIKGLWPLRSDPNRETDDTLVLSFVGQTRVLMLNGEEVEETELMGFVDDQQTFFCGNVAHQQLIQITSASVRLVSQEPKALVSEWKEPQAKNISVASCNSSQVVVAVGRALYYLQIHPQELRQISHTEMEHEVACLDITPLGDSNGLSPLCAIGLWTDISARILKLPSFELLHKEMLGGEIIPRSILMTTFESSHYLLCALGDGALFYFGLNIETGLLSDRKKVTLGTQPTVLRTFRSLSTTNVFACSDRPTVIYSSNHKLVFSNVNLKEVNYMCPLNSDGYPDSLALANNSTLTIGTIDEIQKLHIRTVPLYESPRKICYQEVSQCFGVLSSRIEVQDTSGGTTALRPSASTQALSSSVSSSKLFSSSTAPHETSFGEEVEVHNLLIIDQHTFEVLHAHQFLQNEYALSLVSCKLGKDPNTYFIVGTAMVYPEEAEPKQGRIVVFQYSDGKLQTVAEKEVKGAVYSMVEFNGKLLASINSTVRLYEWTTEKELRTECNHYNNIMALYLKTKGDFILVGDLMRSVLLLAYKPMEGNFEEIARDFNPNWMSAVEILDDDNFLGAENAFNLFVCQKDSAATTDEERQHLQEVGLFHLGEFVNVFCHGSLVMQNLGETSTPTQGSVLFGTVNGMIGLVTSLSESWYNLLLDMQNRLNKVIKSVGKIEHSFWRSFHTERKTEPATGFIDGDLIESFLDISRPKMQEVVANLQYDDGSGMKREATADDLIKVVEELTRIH
# method_description: CRBN-DDB1 ligand-displacement AlphaScreen
# Type: binding
# particulars: purified CRBN-DDB1 ligand displacement
# Method: Following a 30 min incubation, 20 uL detection solution containing Streptavidin Donor Beads and Nickel Chelate AlphaLISA® Acceptor Beads diluted to 20 ng/uL in assay buffer was added to each well.
pIC50: −log10 of the molar value.
property_measured: pIC50

1. COc1cc(-c2cn(C)c(=O)c3cnccc23)cc(OC)c1CN(C)CC(=O)NCCCCCCCCNC(=O)COc1cccc2c1C(=O)N(C1CCC(=O)NC1=O)C2=O (centres unmarked)
7.83
2. COc1cc(-c2cn(C)c(=O)c3cc(C(=N)NC4CCS(=O)(=O)CC4)sc23)ccc1OCC(=O)N1CCC(C2CCN(C(=O)COc3cccc4c3C(=O)N(C3CCC(=O)NC3=O)C4=O)CC2)CC1 (centres unmarked)
7.80
3. COc1cc(-c2cn(C)c(=O)c3cnccc23)cc(OC)c1CN(C)CC(=O)NCCCCCCCCNc1cccc2c1C(=O)N(C1CCC(=O)NC1=O)C2=O (centres unmarked)
8.08
4. COc1cc(-c2cn(C)c(=O)c3cc(C(=N)NC4CCS(=O)(=O)CC4)sc23)ccc1OCC(=O)NCCCCCCCCNc1ccc2c(c1)C(=O)N(C1CCC(=O)NC1=O)C2=O (centres unmarked)
7.75
5. COc1cc(-c2cn(C)c(=O)c3cnccc23)cc(OC)c1CN(C)CC(=O)NCCCCCCNc1ccc2c(c1)C(=O)N(C1CCC(=O)NC1=O)C2=O (centres unmarked)
8.07
6. COc1cc(-c2cn(C)c(=O)c3cc(C(=N)NC4CCS(=O)(=O)CC4)sc23)ccc1OCC(=O)NCCCCCCCCNc1cccc2c1CN(C1CCC(=O)NC1=O)C2=O (centres unmarked)
7.95
7. COc1cc(-c2cn(C)c(=O)c3cc(C(=N)NC4CCS(=O)(=O)CC4)sc23)ccc1OCC(=O)NCCCCCCCCNC(=O)COc1cccc2c1C(=O)N(C1CCC(=O)NC1=O)C2=O (centres unmarked)
7.36
8. COc1cc(-c2cn(C)c(=O)c3cc(C(=N)NC4CCS(=O)(=O)CC4)sc23)ccc1OCC(=O)NCCCOCCOCCOCCCNC(=O)COc1cccc2c1C(=O)N(C1CCC(=O)NC1=O)C2=O (centres unmarked)
7.31
9. COc1cc(-c2cn(C)c(=O)c3cc(C(=N)NC4CCS(=O)(=O)CC4)sc23)ccc1OCC(=O)NCCCCCCOc1cccc2c1C(=O)N(C1CCC(=O)NC1=O)C2=O (centres unmarked)
7.70
10. COc1cc(-c2cn(C)c(=O)c3cc(C(=N)NC4CCS(=O)(=O)CC4)sc23)ccc1OCC(=O)NCCCCNC(=O)COc1cccc2c1C(=O)N(C1CCC(=O)NC1=O)C2=O (centres unmarked)
7.31
11. COc1cc(-c2cn(C)c(=O)c3cc(C(=N)NC4CCS(=O)(=O)CC4)sc23)ccc1OCC(=O)NCCCCCCCCNc1cccc2c1C(=O)N(C1CCC(=O)NC1=O)C2=O (centres unmarked)
7.97

---

# tested_on: BRD9:CRBN-DDB1 protein complex (Homo sapiens, UniProt Q96SW2+Q9H8M2)
# method_description: BRD9:CRBN-DDB1 dimerization assay (luminescence)
# particulars: luminescence detection of dimerization assay
property_measured: BRD9:CRB9-DDB1 Cmax

1. COc1cc(-c2cn(C)c(=O)c3cc(C(=N)NC4CCS(=O)(=O)CC4)sc23)ccc1OCC(=O)NCCCCCCCCNc1cccc2c1C(=O)N(C1CCC(=O)NC1=O)C2=O (stereo not drawn) [Compound I-5]
37.4 nM
2. COc1cc(-c2cn(C)c(=O)c3cnccc23)cc(OC)c1CN(C)CC(=O)NCCCCCCNc1ccc2c(c1)C(=O)N(C1CCC(=O)NC1=O)C2=O (stereo not drawn) [Compound I-12]
8.39 nM
3. COc1cc(-c2cn(C)c(=O)c3cc(C(=N)NC4CCS(=O)(=O)CC4)sc23)ccc1OCC(=O)NCCCCCCCCNC(=O)COc1cccc2c1C(=O)N(C1CCC(=O)NC1=O)C2=O (stereo not drawn) [Compound I-2]
95.1 nM
